Where these numbers come from: PubChem BioAssay (NCATS)

# System: CP237
# test.description: qHTS profiling for inhibitors of Plasmodium falciparum proliferation (AID 504749); note: nearly all actives have a fitted effect of over 60% in size
# condition.notes: P. falciparum in erythrocytes, SYBR Green DNA, 72 h; series mostly up to 12.8 µM
Records with an inconclusive call do not appear. The source made the active and inactive calls. Calls come from the whole dose curve; as a rule, active = well fitted inhibition curve with a large enough effect; inconclusive = small, poorly fitted or top-dose-only effect; inactive = flat fitted curve, though single readings scatter.
A correct response names exactly one class from True (active), False (inactive)

Answered cases to consult:
CC1C2CCC3C4CC=C5CC(N(C)C)CC[C@@]5(C)C4CC[C@@]32CN1C (some centres undefined) :: False
CCN1CCC[C@@H](OC(=O)C(c2ccccc2)c2ccccc2)C1 :: True

Q) Please state the recorded outcome for this compound: CO[C@]12C(COC(N)=O)C3=C(C(=O)C(C)=C(N)C3=O)N1CC1NC12 (some centres undefined)
A) False

Q) Another: CC(=O)N(C[C@@H](C)C(=O)O)c1c(I)cc(I)c(N)c1I
A) False

Q) Another: CC1(C)SC2C(N3C(=O)C(c4ccccc4)NC3(C)C)C(=O)N2C1C(=O)O (centres undefined)
A) False

Q) Another: COc1ccccc1OC[C@H](O)CO
A) False

Q) Another: NC[C@@H]1O[C@@H](O[C@H]2[C@H](O)[C@H](O[C@@H]3O[C@H](CO)[C@@H](O)[C@H](N)[C@@H]3O)[C@@H](N)C[C@H]2N)[C@H](N)C[C@@H]1O
A) False

Q) Another: CC(=O)C[C@H](c1ccc([N+](=O)[O-])cc1)c1c(O)c2ccccc2oc1=O
A) False

Q) Another: CC(=O)O[C@@]1(C(C)=O)CCC2C3CC(C)C4=CC(=O)CC[C@@]4(C)C3CC[C@]21C (some centres undefined)
A) False
